Where do the numbers come from? From the RNAGym collection of RNA variant scans (doi:10.1073/pnas.2313332121).

B1: TPR t1 (parent)
chain: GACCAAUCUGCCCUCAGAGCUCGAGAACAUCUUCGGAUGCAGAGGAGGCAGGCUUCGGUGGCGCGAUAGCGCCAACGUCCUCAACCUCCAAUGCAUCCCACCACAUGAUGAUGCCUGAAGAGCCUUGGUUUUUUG

- Variants of: B1
- methodNotes: polymerase ribozyme fitness, log enrichment relative to wild type (log ratio); higher = more active; in vitro selection for triplet polymerase activity
Label rule, in plain words: polymerase ribozyme fitness (log ratio) of -3 and up is TRUE, under -3 is FALSE.

| mut | assignedClass |
| --- | --- |
| U109C C123U | FALSE |
| C4G U9C G57A G63C C79A A84C C89U | FALSE |
| U112C C124A | TRUE |
| U7G A83U U87A A95U C124A | TRUE |
| C3U A27G G42U C72U C82U C104U | FALSE |
| C15U C76G G77C C123A | TRUE |
| A46U G69U C115A | TRUE |
| U21C G77C | TRUE |
| C85U C88U | TRUE |
| G10A A84U G110U | TRUE |
| A43G G51C C72U U78G C79A U112A | FALSE |
| C72U C88A C101A | TRUE |
| C34A C124A | TRUE |
| U106A G120A | TRUE |
| C11A C56A | TRUE |
| U109A U112C U130A G135U | FALSE |
| A46U G63C U112C G117C A121U | FALSE |
| C13A G17C | FALSE |
| G44A C72U | TRUE |
| G63A C85A C115U | FALSE |
